meta.source: ChEMBL document CHEMBL3596161

experiment: Cytotoxicity against human Non-small cell lung cancer cell; assay type: functional, cell-based; conditions: Cancer cell lines
Measured parameter: IC50 (µM)

| Smiles data | Measured parameter | Reported value |
| --- | --- | --- |
| COc1ccc2c(c1OC)C(=O)O[C@@H]2[C@H]1c2c(c(Br)c3c(c2OC)OCO3)CCN1C | IC50 | 4 |
